# target.desc: human cathepsin K (CatK) (Homo sapiens (Human))
# Sequence (P43235 115-329): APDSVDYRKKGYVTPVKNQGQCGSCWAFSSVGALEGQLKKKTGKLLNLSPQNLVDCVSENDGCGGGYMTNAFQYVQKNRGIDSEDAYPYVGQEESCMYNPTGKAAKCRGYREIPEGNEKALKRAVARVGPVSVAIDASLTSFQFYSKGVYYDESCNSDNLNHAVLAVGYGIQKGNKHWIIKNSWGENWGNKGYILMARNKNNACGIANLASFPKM
# method: CatK functional enzyme assay
# condition.set: recombinant human CatK, substrate Z-FR-AMC 40 μM, pH 5.5; Ki by Cheng Prusoff equation; read-out: hCatK, Ki
Listed below: Ki values for each entry.

See these solved cases before continuing.
| compound | measurement.type | reported |
| --- | --- | --- |
| O=C(N[C@H](C(=O)N1C[C@H](Cl)[C@H]2OCC(=O)[C@H]21)C1CCCCC1)c1sc(-c2cncnc2)cc1F [Example 53] | Ki | 34 nM |
| C[S+]([O-])c1cnnc(-c2ccc(C(=O)N[C@H](C(=O)N3C[C@H](Cl)[C@H]4OCC(=O)[C@H]43)C3CCCCC3)s2)c1 (stereo partly drawn) [Example 76] | Ki | 30 nM |

Problem: Ki lookup needed for Cc1cc(-c2ccc(C(=O)N[C@H](C(=O)N3C[C@H](Cl)[C@H]4OCC(=O)[C@H]43)C3CCCCC3)s2)c(C)cn1 [Example 88] , thanks.
Solution: 18 nM
